These data points were gathered from ChEMBL document CHEMBL5518164.

- protocol-notes: Half life of the compound in phosphate buffer saline at pH 7.3 by RP18-HPLC analysis
- Assay type: ADME
measure: half-life (h)

compound	half-life / h
CC(C)OC(=O)OCOP(=O)(CO[C@H](C)Cn1cnc2c(N)ncnc21)OCOC(=O)OC(C)C.O=C(O)/C=C/C(=O)O [TENOFOVIR DISOPROXIL FUMARATE]	27.8

1 = CCCCCCCCCCCCCCCCCCOP(=O)(OCCCCCCCC)OP(=O)(O)OP(=O)(O)CO[C@H](C)Cn1cnc2c(N)ncnc21 (some centres not stated)
2 = CCCCCCCCCCCCCCCCCCP(=O)(OCCCC)OP(=O)(O)CO[C@H](C)Cn1cnc2c(N)ncnc21 (some centres not stated)
Hi there! Just curious which has the higher half-life between 1 and 2 . In your reply, give the label of the chosen option.
1
(1: 207 h, 2: 27 h)

###

- System: Human immunodeficiency virus
- protocol-notes: Substrate activity at HIV reverse transcriptase assessed as n+1 band formation incubated for 30 mins in presence of primer/template mixture and dNTPs by primer extension assay based fluorescence analysis
Active and inactive are the calls of the source. The rule behind the calls is not given here.
Choose one outcome from this list and give only that: active, inactive

Worked set:
molecule	assigned-class
C[C@H](Cn1cnc2c(N)ncnc21)OCP(=O)(O)OP(=O)(O)OP(=O)(O)O	active
Nc1ncnc2c1ncn2[C@H]1C[C@H](O)[C@@H](COP(=O)(O)OP(=O)(O)OP(=O)(O)O)O1	active
CCCCCCCCCCCCCCCCCCP(=O)(OCCCC)OP(=O)(O)CO[C@H](C)Cn1cnc2c(N)ncnc21 (some centres not stated)	inactive
CCCCCCCCCCCCCCCCCCOP(=O)(O)OP(=O)(O)OP(=O)(O)CO[C@H](C)Cn1cnc2c(N)ncnc21	inactive

Tell me the recorded outcome of this test for CCCCCCCCCCCCCCCCCCP(=O)(OCCCC)OP(=O)(O)OP(=O)(O)CO[C@H](C)Cn1cnc2c(N)ncnc21 (some centres not stated) .
inactive

Tell me the recorded outcome of this test for "CCCCCCCCCCCOP(=O)(O)OP(=O)(O)OP(=O)(O)CO[C@H](C)Cn1cnc2c(N)ncnc21" .
inactive

Tell me the recorded outcome of this test for CCCCCCCCCCCCCCCCCCOP(=O)(OCCCC)OP(=O)(O)OP(=O)(O)CO[C@H](C)Cn1cnc2c(N)ncnc21 (some centres not stated) .
active

###

- protocol-notes: Lipophilicity of the compound assessed as retention time by RP-HPLC analysis
- Format: physicochemical
measure: Retention_time (min)

compound	test-value
CCCCCCCCCCCCCCCCCCP(=O)(OCCCCCCCC)OP(=O)(O)CO[C@H](C)Cn1cnc2c(N)ncnc21 (stereo not given in full)	20.1
CCCCCCCCC(=O)Oc1ccc(COOP(=O)(O)OP(=O)(O)OP(=O)(O)CO[C@H](C)Cn2cnc3c(N)ncnc32)cc1	16.4
CCCCCCCCCCCCCCCCCCP(=O)(OCCCCCCCC)OP(=O)(O)OP(=O)(O)CO[C@H](C)Cn1cnc2c(N)ncnc21 (stereo not given in full)	16.3
CCCCCCCCCCCCCCCCCCOP(=O)(OCCCC)OP(=O)(O)OP(=O)(O)CO[C@H](C)Cn1cnc2c(N)ncnc21 (stereo not given in full)	15.5
CCCCCCCCCCCOP(=O)(O)OP(=O)(O)OP(=O)(O)CO[C@H](C)Cn1cnc2c(N)ncnc21	12.5
CCCCCCCCCCCCCCCCCCOP(=O)(OCc1ccc(OC(=O)CCCCCCCC)cc1)OP(=O)(O)OP(=O)(O)CO[C@H](C)Cn1cnc2c(N)ncnc21 (stereo not given in full)	19.1
CCCCCCCCCCCCCCCCCCP(=O)(OCCCC)OP(=O)(O)CO[C@H](C)Cn1cnc2c(N)ncnc21 (stereo not given in full)	18.1
CC(C)OC(=O)OCOP(=O)(CO[C@H](C)Cn1cnc2c(N)ncnc21)OCOC(=O)OC(C)C.O=C(O)/C=C/C(=O)O [TENOFOVIR DISOPROXIL FUMARATE]	10.1
CCCCCCCCCCCCCCCCCCOP(=O)(OCc1ccc(OC(=O)CCCCCC)cc1)OP(=O)(O)OP(=O)(O)CO[C@H](C)Cn1cnc2c(N)ncnc21 (stereo not given in full)	18.1
CCCCCCCCCCCCCCCCCCOP(=O)(OCCCCCCCC)OP(=O)(O)OP(=O)(O)CO[C@H](C)Cn1cnc2c(N)ncnc21 (stereo not given in full)	16.6

###

- protocol-notes: Half life of the compound in phosphate buffer saline at pH 7.3 by RP18-HPLC analysis
- Format: ADME
measure: half-life (h)

compound	half-life [h]
CCCCCCCCCCCCCCCCCCOP(=O)(OCCCC)OP(=O)(O)OP(=O)(O)CO[C@H](C)Cn1cnc2c(N)ncnc21 (stereo partly drawn)	257

1 = CCCCCCCCCCCCOP(=O)(OCCCCCCCCCCCC)OP(=O)(O)OP(=O)(O)CO[C@H](C)Cn1cnc2c(N)ncnc21
2 = CCCCCCCCCCCCCCCCCCP(=O)(OCCCCCCCC)OP(=O)(O)CO[C@H](C)Cn1cnc2c(N)ncnc21 (stereo partly drawn)
Which value of half-life is smaller, the one for 1 or the one for 2 ? In your reply, give the label of the chosen option.
2
(2: 26.5 h, 1: 220 h)

###

- protocol-notes: Prodrug conversion of the compound in phosphate buffer saline assessed as (R)-9-(2-(phosphonomethoxy)propyl)adenine formation by measuring half life at pH 7.3 by RP18-HPLC analysis
- Assay type: ADME
measure: t1/2 (h)

compound	t1/2 (h)
CCCCCCCCCCCCCCCCCCOP(=O)(OCc1ccc(OC(=O)CCCC)cc1)OP(=O)(O)OP(=O)(O)CO[C@H](C)Cn1cnc2c(N)ncnc21 (stereo partly specified)	51

a = CCCCCCCCCCCCCCCCCCOP(=O)(OCc1ccc(OC(=O)CCCCCCCC)cc1)OP(=O)(O)OP(=O)(O)CO[C@H](C)Cn1cnc2c(N)ncnc21 (stereo partly specified)
b = CCCCCCCCCCCCCCCCCCOP(=O)(OCc1ccc(OC(=O)CC)cc1)OP(=O)(O)OP(=O)(O)CO[C@H](C)Cn1cnc2c(N)ncnc21 (stereo partly specified)
c = CCCCCCCCCCCCCCCCCCOP(=O)(OCc1ccc(OC(=O)CCCCCC)cc1)OP(=O)(O)OP(=O)(O)CO[C@H](C)Cn1cnc2c(N)ncnc21 (stereo partly specified)
Order by t1/2, ascending. Return value: ordered labels per request.
a, b, c

###

- protocol-notes: Cytotoxicity against human CEM cells assessed as inhibition of cell proliferation
- Assay type: toxicity, cell-based, CCRF-CEM
measure: CC50 (µM)
Please reply with the bare figure in µM and do not write the unit itself.

Worked examples, 3 compounds total:
compound	CC50 (µM)
CCCCCCCCCCCCCCCCCCP(=O)(OCCCC)OP(=O)(O)CO[C@H](C)Cn1cnc2c(N)ncnc21 (some centres not stated)	37.8
CCCCCCCCCCCCCCCCCCP(=O)(OCCCCCCCC)OP(=O)(O)CO[C@H](C)Cn1cnc2c(N)ncnc21 (some centres not stated)	45.2
CCCCCCCCCCCCCCCCCCOP(=O)(OCCCCCCCC)OP(=O)(O)OP(=O)(O)CO[C@H](C)Cn1cnc2c(N)ncnc21 (some centres not stated)	44.7

Now, please, on to the next compound.
Please report the recorded CC50 for CCCCCCCCCCCCCCCCCCP(=O)(OCCCC)OP(=O)(O)OP(=O)(O)CO[C@H](C)Cn1cnc2c(N)ncnc21 (some centres not stated) .
44.6

###

- protocol-notes: Selectivity index, ratio of CC50 for cytotoxicity against human CEM cells to EC50 for antiviral activity against HIV-2 ROD infected in thymidine kinase deficient human CEM cells
- Assay type: toxicity, cell-based
- experimental-conditions: read-out: Ratio CC50/EC50
Below, each entry is listed with its recorded selectivity ratio.
Could you keep your reply to the number by itself?

Worked examples, 6 compounds total:
compound	selectivity ratio
CCCCCCCCCCCCCCCCCCP(=O)(OCCCCCCCC)OP(=O)(O)OP(=O)(O)CO[C@H](C)Cn1cnc2c(N)ncnc21 (some centres not stated)	882
CCCCCCCCCCCCCCCCCCP(=O)(OCCCCCCCC)OP(=O)(O)CO[C@H](C)Cn1cnc2c(N)ncnc21 (some centres not stated)	2050
CCCCCCCCCCCCCCCCCCOP(=O)(OCc1ccc(OC(=O)CCCC)cc1)OP(=O)(O)OP(=O)(O)CO[C@H](C)Cn1cnc2c(N)ncnc21 (some centres not stated)	986
CCCCCCCCCCCCOP(=O)(OCCCCCCCCCCCC)OP(=O)(O)OP(=O)(O)CO[C@H](C)Cn1cnc2c(N)ncnc21	688
CCCCCCCCCCCCCCCCCCOP(=O)(OCc1ccc(OC(=O)CC)cc1)OP(=O)(O)OP(=O)(O)CO[C@H](C)Cn1cnc2c(N)ncnc21 (some centres not stated)	762
CCCCCCCCCCCCCCCCCCP(=O)(OCCCC)OP(=O)(O)OP(=O)(O)CO[C@H](C)Cn1cnc2c(N)ncnc21 (some centres not stated)	1350

Please report the recorded selectivity ratio for CCCCCCCCCCCCCCCCCCOP(=O)(OCCCC)OP(=O)(O)OP(=O)(O)CO[C@H](C)Cn1cnc2c(N)ncnc21 (some centres not stated) .
3690
